B1: CLCN6 (parent)
chain: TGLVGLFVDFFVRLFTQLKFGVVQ

# Variants of: B1
# Test details: protein stability index of a GFP-peptide fusion (GPS, HEK-293T) (PSI 1-6); higher = more stable;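 further: lentivirally expressed fusions sorted by FACS into six bins by GFP to DsRed ratio, PSI derived from sequencing read proportions per bin multiplied by bin number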
# Experimental context: c terminus: a fixed tail appended

| Variant spec | protein stability index |
| --- | --- |
| G2C | 2.77 |
| V4F | 2.93 |
| R13I | 2.59 |
| G5T | 1.34 |
| D9G | 2.47 |
| G21F | 3.79 |
| L3M | 2.73 |
| G5M | 2.48 |
| V4M | 2.49 |
| T16R | 3.85 |
| F7W | 2.28 |
| T16Y | 1.98 |
| L18P | 2.63 |
| L3P | 2.45 |
| Q24Y | 1.74 |
| K19V | 2.66 |
| V8D | 2.45 |
| F7Y | 2.54 |
| R13N | 1.91 |
| F11N | 2.88 |
| V8R | 2.25 |
| G21T | 2.4 |
| F15C | 2.2 |
| T1G | 2.12 |
| F15A | 1.96 |
| F10P | 2.17 |
| V8E | 1.38 |
| T1C | 2.14 |
| G5Y | 2.08 |
| V8W | 3.01 |
| G21S | 3.08 |
| L3K | 3.14 |
| R13V | 1.76 |
| F15T | 2.51 |
| R13A | 2.04 |
| V23A | 2.27 |
| L3A | 2.15 |
| V12S | 2.45 |
| L18W | 1.66 |
| L6P | 2.65 |
| G2E | 1.67 |
| K19A | 2.84 |
| F10Y | 2.27 |
| T1P | 2.59 |
| G21C | 1.86 |
| T1M | 1.99 |
| T1L | 1.68 |
| F7K | 1.78 |
| V22L | 2.5 |
| Q24E | 2.08 |
| F10I | 2.21 |
| T16A | 2.43 |
| V4Q | 2.79 |
| F7S | 1.82 |
| G21Q | 2.77 |
| V12R | 2.04 |
| V22T | 2.18 |
| R13K | 2.73 |
| G21E | 2.3 |
| G5N | 2 |
| Q17M | 2.09 |
| L14T | 1.99 |
| F20Y | 2.55 |
| G2M | 2.66 |
| V22H | 1.92 |
| D9M | 1.89 |
| Q24L | 2.14 |
| D9Y | 1.89 |
| V8F | 2.04 |
| F11R | 2.75 |
| V4G | 1.66 |
| F10R | 2.82 |
| K19S | 2.92 |
| F20T | 3.48 |
| L6V | 2.15 |
| T16G | 2.81 |
| F15V | 2.72 |
| T1H | 2.01 |
| L14P | 1.68 |
| K19E | 4.38 |
| D9P | 1.92 |
| R13Y | 2.62 |
| F11I | 2.29 |
| L18D | 2.25 |
| D9T | 1.97 |
| T1R | 3.29 |
| F10C | 1.42 |
| G5K | 3.25 |
| V12Y | 3.07 |
| Q24G | 2.32 |
| R13P | 3.13 |
